Experiment: folding stability dG unfold from trypsin proteolysis; higher = more stable
Please mark 1 if the recorded folding stability dG unfold is equal to or greater than 0.8 kcal/mol, and -1 if it falls below.

Illustrative cases are given below, each with its answer.
[
  {
    "biosequence": "SADVVVIHARSPEELRAALEEARKEGKTVRIVVSREELDELKALLPEDVKIEVLKNENGEELVVIEVKVSAG [r14_127_TrROS_Hall]",
    "qualitative-label": 1
  },
  {
    "biosequence": "SAGGSAGGSAGGGITIKGPGSVTVTVPASDVASISVDPATGTVTVEIPATGTTLTVPPASAGGSAGGSAGGS [r10_200_JUSTAS]",
    "qualitative-label": 1
  },
  {
    "biosequence": "SAGGSAGGSAGMKIEYEHDPNRNWYTVKIDFPNGPPKIPIQVPHDDMPPNDLRDWAKELFSAGGSAGGSAGG [r11_557_TrROS]",
    "qualitative-label": -1
  },
  {
    "biosequence": "SDKLAKLLEDELEKAGYEVVSVEVRYDPEKGLLYVNALVRRKDDPTWYRVRAVYNPETDELLEVKIEPLPSA [r9_814_TrMRF]",
    "qualitative-label": 1
  },
  {
    "biosequence": "SAGGSAGGSMETTREELPPELTVERVTEREPGEGRITVRVKVYRPDGTLLSEEVVERDPEDLESAGGSAGGS [r12_240_JUSTAS]",
    "qualitative-label": -1
  },
  {
    "biosequence": "SAGGSAGGSAGDVEVRFEVKFTPDGTLIIKAEIRLPDIPDVTIRVEAVILPNGEILVKVSSAGGSAGGSAGG [r11_483_TrMRF]",
    "qualitative-label": 1
  }
]

## Task Does the reported folding stability dG unfold for SAGPPGQPVKTIEIMIEFPPGQTMEEARERVEEIADEIQRKFPKIKSIDVDVQKDDDTYYVNANITIPYSAG [r5_446_TrROS] fall at or above the 0.8 kcal/mol mark?
## Result 1

###

Documented folding stability dG unfold across a set of sequences
Experiment: folding stability dG unfold from chymotrypsin proteolysis; higher = more stable
Quick reminder: number only, in kcal/mol, skip the unit.

The following sequences have reported results that may help.
[
  {
    "biosequence": "ATVTVEKLPDGYRVTVTIGATYIDPETGKPVELSAPVTAFVPPEVPDPEVAAKRAAAEALAEFLAALPEGGS [r1_414_TrMRF]",
    "measure-name": "folding stability dG unfold",
    "endpoint-value": 1.74
  },
  {
    "biosequence": "SAGGMKKVRLTLVFESEEEALEALRKALEEAGVEVKVVRVERLPDGRVVVTVEIEVSDEVLEALKAASAGGS [r8_357_TrROS_Hall]",
    "measure-name": "folding stability dG unfold",
    "endpoint-value": 4.01
  },
  {
    "biosequence": "SAGGSAGGMKTFTIDELKKLAEELGAEIYYDKDTNTIYIRTPGKIFRITINDDGTVTIEELPPKSAGGSAGG [r6_155_TrROS_Hall]",
    "measure-name": "folding stability dG unfold",
    "endpoint-value": 3.99
  },
  {
    "biosequence": "SMKKNTLTLTVKVKVTVTVVKKKKDGKEEVVKKETVEVTVKVTFLSKEELEKLKKELEKLKKELEELKKKSA [r9_1192_TrROS_Hall]",
    "measure-name": "folding stability dG unfold",
    "endpoint-value": 4.7
  },
  {
    "biosequence": "SAETKAEVFRFGDVLVVVTEERVTTPDGSERPVYTVTLLVYDPSTGKWTPFSRPFSSKEDAAKALSSGVSAG [r14_500_TrMRF]",
    "measure-name": "folding stability dG unfold",
    "endpoint-value": 2.22
  },
  {
    "biosequence": "SATAVVIKAEVIFPNNEKKEISVVIENLTEEEVEELAEELEKKIKEEAGIPDIEVKIKVETFAKDDPAFSAG [r14_207_TrMRF]",
    "measure-name": "folding stability dG unfold",
    "endpoint-value": 1.01
  },
  {
    "biosequence": "SAGGSAGGSAGGDAPNTTVTVTLKAEVYYDPSTGALVVKVTAYFPATNTTVTLEFTFPLSAGGSAGGSAGGS [r10_187_TrMRF]",
    "measure-name": "folding stability dG unfold",
    "endpoint-value": 4.66
  },
  {
    "biosequence": "SAGGGPPGVVKPFTEETTFTVPLAGGPPVEVKTTTTTYTSADPAKRSLVTTTTTSPQNATTTTVTPLSSAGG [r13_654_JUSTAS]",
    "measure-name": "folding stability dG unfold",
    "endpoint-value": -0.2
  },
  {
    "biosequence": "SAGGSMSVEVEVLAKVKLPNGEEVTFPVRVTYNPETGEVTVEIDLPKEVFERLKELYPDGIIAPEPSAGGSA [r2_409_TrMRF]",
    "measure-name": "folding stability dG unfold",
    "endpoint-value": 3.5
  },
  {
    "biosequence": "SAGGSAKSIKAEELAKEIADLMQERNPNWRVEIEPQPGPGPMITVKIYHRDPNNGDQQPINTFTIRSAGGSA [r15_682_TrROS]",
    "measure-name": "folding stability dG unfold",
    "endpoint-value": 0.188
  }
]

## Task Query (sequence): SAGSPLTLSEKTSYDPSTGVTTRTFTFPDGTTRTTATVTVPGTGTLLTSTDFTQSPGTLTQSSGVAPLSAGG [r19_394_JUSTAS] ; field requested: folding stability dG unfold
## Result 0.706

## Task Query (sequence): SAGEVKPGETVTLTIVLSKEELEKLEELAKALPGVEVTEVKVEKLPDGLVRVTITVTKEALEKLKELLESAG [r5_554_TrROS_Hall] ; field requested: folding stability dG unfold
## Result 3.71

## Task Query (sequence): SAGGSAGGSAGGKKVYKVPSLEEALELAKKNKGKTVEIEVDGKKYKFNKNGKIVEIEPVKSAGGSAGGSAGG [r7_532_TrROS_Hall] ; field requested: folding stability dG unfold
## Result 2.38

## Task Query (sequence): SSVPADAAPVTVTETVTVTLPVDTATGGVPEERVAAAREAAAARGFTEFTVTTDPAAGTVTVTVTRTSRVSA [r9_201_JUSTAS] ; field requested: folding stability dG unfold
## Result 1.27

## Task Query (sequence): SARILRVEFEPFPLTERARLRLEVEDEDNDFPYEVDIELEVLPDPSEVRLRLVVRRPDGSRRELELRLFSAG [r14_10_TrMRF] ; field requested: folding stability dG unfold
## Result 4.97

## Task Query (sequence): SAGGGLPASDPDVTATTETFTVTYTEATPEGNPVTTTTTTTVTTYTAPDGAVTTTTTTTSTTVTPASTSAGG [r13_51_JUSTAS] ; field requested: folding stability dG unfold
## Result 1.77

## Task Query (sequence): SAGGSAGGSAKIMIPVDTPEEVKDIAEEFASNGNKEVEPHEDGWVSIEFPNGVPIEIWLPKDSAGGSAGGSA [r18_126_TrROS] ; field requested: folding stability dG unfold
## Result 0.488

## Task Query (sequence): SAGGSAGGSAGMEPEIYTITTTDSNGNTSSYTFTSTEEVNAFLNDPSFQSSAVSFTVSPTSAGGSAGGSAGG [r11_1047_JUSTAS] ; field requested: folding stability dG unfold
## Result 2.88

## Task Query (sequence): SMVVVKVTASSPEEAEALAKEAEEKLKEEIEKKIKELKKKGINPKELNLNIKIEIETLSYDPANPGKNTPSA [r9_961_JUSTAS] ; field requested: folding stability dG unfold
## Result 0.998

###

Documented folding stability dG unfold across a set of sequences
Assay: folding stability dG unfold from trypsin proteolysis; higher = more stable
Mention the unit after the number when you answer.

The following sequences have reported results that may help.
[
  {
    "biosequence": "SAGGSAGGSIWIPPNHSVEEFAKEIQDKGNAEVKRDEPGWYKIKSKNNKPKKRIRFQANPEQFSAGGSAGGS [r20_236_TrROS]",
    "endpoint-value": "-0.163 kcal/mol"
  },
  {
    "biosequence": "SAGGSAGGSSPPLEILDPVSATLPDGGTLTVAKAAGSYYLVTTTTYDPATGTATSTTTVVPLESAGGSAGGS [r20_15_JUSTAS]",
    "endpoint-value": "0.0164 kcal/mol"
  },
  {
    "biosequence": "SAGGSAGGLGWGSFKLPFEFWDPANGMPMRNSINIMVIVIPPPPPKVEVEEDPDNGKKKVTYDDSAGGSAGG [r6_926_TrROS]",
    "endpoint-value": "2.67 kcal/mol"
  }
]

Turning now to a further record.
## Task Query (sequence): SAGGSAGGSGSFSLSFPDADGVSVTLDPNTGIVTMSFNRPDANYTITLERYPDSIVVKEIKLPSAGGSAGGS [r20_60_JUSTAS] ; field requested: folding stability dG unfold
## Result 1.05 kcal/mol
